- EXPERIMENTAL_TARGET: Edg-3 (Homo sapiens, UniProt Q99500)
- Sequence (Q99500 whole entry): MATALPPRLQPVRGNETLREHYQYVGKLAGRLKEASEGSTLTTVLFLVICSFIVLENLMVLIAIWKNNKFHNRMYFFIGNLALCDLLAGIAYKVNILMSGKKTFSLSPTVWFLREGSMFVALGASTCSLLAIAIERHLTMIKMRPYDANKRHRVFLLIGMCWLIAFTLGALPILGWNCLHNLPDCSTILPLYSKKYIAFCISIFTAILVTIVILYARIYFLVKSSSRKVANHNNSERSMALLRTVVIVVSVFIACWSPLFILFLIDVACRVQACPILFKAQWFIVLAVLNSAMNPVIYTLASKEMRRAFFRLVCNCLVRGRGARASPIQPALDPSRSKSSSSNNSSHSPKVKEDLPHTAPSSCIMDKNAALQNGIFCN
- PROCEDURE_DETAILS: Calcium mobilization assay (FLIPR), inhibition of S1P-stimulated calcium increase
- TEST_SETTINGS: HTC cells expressing Edg-3
IC50 values by entry
PROPERTY: IC50

{"columns": ["MOLECULE", "PROPERTY", "TEST_VALUE"],
 "data": [
  ["CCOC(=O)c1c(NC(=O)NS(=O)(=O)c2ccccc2Cl)sc2c1CCCC2", "IC50", "> 20 µM"],
  ["Cc1ccc(S(=O)(=O)N=C2NC(=O)/C(=C3/C(=O)Nc4ccccc43)S2)cc1", "IC50", "> 20 µM"],
  ["O=C(O)COc1ccc(Br)cc1/C=C1\\S/C(=N\\c2ccc(Cl)cc2)NC1=O (racemic)", "IC50", "> 20 µM"]
]}

###

melting point values by entry

{"columns": ["COMPOUND", "melting point"],
 "data": [
  ["CCCCCC(CCCCC)=N/N=C1\\NC(=O)C(CC(=O)O)S1 (stereo not drawn) [Compound 127]", "134 to 135 °C"],
  ["Cc1ccc(S(=O)(=O)N=C2NC(=O)/C(=C3/C(=O)Nc4ccccc43)S2)cc1 [Compound 105]", "320 °C (dec.)"],
  ["Cc1cc(C)c2c(c1)Cc1ccccc1S2(=O)=O [Compound 133]", "103 to 105 °C"],
  ["O=C(O)COc1ccc(Br)cc1/C=C1\\S/C(=N\\c2ccc(Cl)cc2)NC1=O (racemic) [Compound 107]", "272 °C (dec.)"],
  ["CCOC(=O)c1c(NC(=O)NS(=O)(=O)c2ccccc2Cl)sc2c1CCCC2 [Compound 101]", "222 to 225 °C"],
  ["COc1ccc(-c2nc3ccc(C(=O)O)cc3nc2-c2ccc(OC)cc2)cc1 [Compound 129]", "284 to 285 °C"]
]}

###

- EXPERIMENTAL_TARGET: Edg-1 (Homo sapiens, UniProt P21453)
- Sequence (P21453 whole entry): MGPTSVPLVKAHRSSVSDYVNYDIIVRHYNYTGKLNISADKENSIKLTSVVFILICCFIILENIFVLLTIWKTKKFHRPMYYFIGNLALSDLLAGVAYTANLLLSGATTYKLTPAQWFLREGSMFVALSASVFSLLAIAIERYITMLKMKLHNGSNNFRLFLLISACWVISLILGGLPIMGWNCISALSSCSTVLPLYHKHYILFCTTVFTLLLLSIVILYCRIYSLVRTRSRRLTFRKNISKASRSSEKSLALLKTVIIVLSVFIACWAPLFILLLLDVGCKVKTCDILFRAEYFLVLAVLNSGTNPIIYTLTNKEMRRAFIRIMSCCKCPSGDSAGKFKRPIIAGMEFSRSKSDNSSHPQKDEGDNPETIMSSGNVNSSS
- PROCEDURE_DETAILS: Calcium mobilization assay (FLIPR), inhibition of S1P-stimulated calcium increase
- TEST_SETTINGS: HTC cells expressing Edg-1
pIC50: −log10 of the molar value.

{"columns": ["COMPOUND", "pIC50"],
 "data": [
  ["Cc1ccc(S(=O)(=O)N=C2NC(=O)/C(=C3/C(=O)Nc4ccccc43)S2)cc1", "< 4.70"],
  ["O=C(O)COc1ccc(Br)cc1/C=C1\\S/C(=N\\c2ccc(Cl)cc2)NC1=O (racemic)", "< 4.70"],
  ["CCOC(=O)c1c(NC(=O)NS(=O)(=O)c2ccccc2Cl)sc2c1CCCC2", "< 4.70"]
]}

###

- EXPERIMENTAL_TARGET: human Edg 7 receptors (Homo sapiens)
- Sequence (Q9UBY5 1-353): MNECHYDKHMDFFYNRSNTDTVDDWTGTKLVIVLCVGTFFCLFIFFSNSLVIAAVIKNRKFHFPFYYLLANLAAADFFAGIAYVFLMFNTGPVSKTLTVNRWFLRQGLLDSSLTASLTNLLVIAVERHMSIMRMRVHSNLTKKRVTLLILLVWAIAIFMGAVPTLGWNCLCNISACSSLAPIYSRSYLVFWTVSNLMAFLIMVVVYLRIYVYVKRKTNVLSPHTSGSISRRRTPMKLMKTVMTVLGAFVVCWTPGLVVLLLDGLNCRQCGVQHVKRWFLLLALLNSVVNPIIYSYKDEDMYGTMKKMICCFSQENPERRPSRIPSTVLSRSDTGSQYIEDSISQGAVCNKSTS
- PROCEDURE_DETAILS: Calcium mobilization assay (FLIPR), inhibition of LPA response
- TEST_SETTINGS: HTC cells expressing human Edg 7

{"columns": ["COMPOUND", "IC50 / µM"],
 "data": [
  ["CCOC(=O)c1c(NC(=O)NS(=O)(=O)c2ccccc2Cl)sc2c1CCCC2", 1.59],
  ["O=C(O)COc1ccc(Br)cc1/C=C1\\S/C(=N\\c2ccc(Cl)cc2)NC1=O (racemic)", 7.73],
  ["Cc1ccc(S(=O)(=O)N=C2NC(=O)/C(=C3/C(=O)Nc4ccccc43)S2)cc1", 0.52]
]}
